# assayName: Protein binding in rat plasma
# Format: ADME, cell-free
# measurementParameters: read-out: PB (converted)
measuredAttribute: fraction unbound
One number for each entry.

smiles: COc1cc(OC)cc(C(=O)Nc2ccc(C)c(C(=O)Nc3cnc(Nc4ccc(N5CCN(C)CC5)cc4)nc3)c2)c1
testResult: 0.017
--
smiles: Cc1ccc(NC(=O)c2ccc3c(c2)OC(F)(F)O3)cc1C(=O)Nc1cnc(Nc2ccc(N3CCN(C)CC3)cc2)nc1
testResult: 0.011
--
smiles: Cc1ccc(NC(=O)c2cccc(C(F)(F)F)c2C)cc1C(=O)Nc1cnc(Nc2ccc(N3CCN(C)CC3)cc2)nc1
testResult: 0.014
--
smiles: Cc1ccc(NC(=O)c2cc(F)cc(C(F)(F)F)c2)cc1C(=O)Nc1cnc(Nc2ccc(N3CCN(C)CC3)cc2)nc1
testResult: 0.023

The record that follows has no fraction unbound shown yet.
Kindly note the recorded fraction unbound for "Cc1ccc(NC(=O)c2cccc(C(F)(F)F)c2)cc1C(=O)Nc1cnc(Nc2ccc(N3CCN(C)CC3)cc2)nc1" , which is 0.006
